Here the recorded Kd is given for each entry.
measured.on: T1, ABH2 S125A (human, UniProt Q6NS38 1-261, S125A)
T1 sequence: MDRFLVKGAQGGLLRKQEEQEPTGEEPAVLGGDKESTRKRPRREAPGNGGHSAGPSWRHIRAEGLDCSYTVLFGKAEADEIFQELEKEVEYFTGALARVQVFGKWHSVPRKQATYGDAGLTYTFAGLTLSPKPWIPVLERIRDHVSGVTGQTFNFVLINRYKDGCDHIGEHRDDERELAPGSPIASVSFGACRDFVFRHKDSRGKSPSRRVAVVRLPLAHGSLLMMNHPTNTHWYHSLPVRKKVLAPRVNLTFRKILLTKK
test.name: EMSA; 0.5 mM αKG, 10 mM Mg2+, 2 mM ascorbate; 50 mM Tris-HCl pH 8.0, 50 mM KCl, 10 mM MgCl2, 0.5 mM αKG, 2 mM sodium ascorbate; 1.2 µM DNA, 0.4-12.8 µM protein; 10 min 37 °C then 5 min on ice; 10% native PAGE, 0.5x TBE, 4-8 °C; Hill fit
recorded.conditions: protein: recombinant; tags: N-terminal His6; label: 5'-FAM on strand 1; blunt
State just the number; it will be interpreted in µM.

In: Please report the measured Kd for m1A dsDNA (dsDNA, N1-methyladenine (m1A) at position 10 of strand 1) DNA 1: AGTTCAATGATCTTCAT DNA 2: ATGAAGATCATTGAACT
Out: 2.7

Please turn your attention to the following entry.
In: Please report the measured Kd for m3C dsDNA (dsDNA, N3-methylcytosine (m3C) at position 12 of strand 1) DNA 1: AGTTCAATGATCTTCAT DNA 2: ATGAAGATCATTGAACT
Out: 4
